Reported self-cleavage values for the following variants.
B1: HDV Ribozyme (parent)
chain: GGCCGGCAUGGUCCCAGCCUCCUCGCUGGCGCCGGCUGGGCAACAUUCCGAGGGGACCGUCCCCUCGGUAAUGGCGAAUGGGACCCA

Variants of: B1
EXPERIMENT NOTES: self-cleavage, relative activity (ratio to wild type); higher = more cleavage; co-transcriptional

# VARIANT ID, self-cleavage
data = [
    ("C14G U27G", 1.14),
    ("C30U G52C", 0.709),
    ("G17U A51C", 0.831),
    ("C3U C44U", 0.378),
    ("G82U C86U", 0.554),
    ("C22U C86U", 0.674),
    ("C19G C57G", 0.0739),
    ("G59A G81A", 0.472),
    ("C24G C44U", 0.0978),
    ("G81C A83U", 0.237),
    ("U12G U23A", 0.875),
    ("G67U A87C", 0.925),
    ("C21A C85G", 0),
    ("C19G A51U", 0.0678),
    ("G38A C58A", 0.115),
    ("C15G G54A", 0.534),
    ("C4G C49A", 0.346),
    ("U20A C21A", 0.0536),
    ("C66A G67A", 0.864),
    ("G2C C84U", 0.0181),
    ("C4G G52C", 0.383),
    ("G1U A70U", 0.381),
    ("G25U C26G", 0.816),
    ("C4U A45U", 0.458),
    ("U46C U69G", 1.08),
    ("G40U C44G", 0.194),
    ("G11C G80U", 0.0621),
    ("C30U G67U", 0.75),
    ("G6U C48U", 0.696),
    ("C30U C44U", 0.289),
    ("G38A G73C", 0.13),
    ("C48G C61G", 1.06),
    ("U46A U69G", 0.793),
    ("C4U G6A", 0.532),
    ("G38A C61A", 0.105),
]
